Recorded pIC50 by entry
target: His-tagged KRAS G12D protein (Homo sapiens, UniProt P01116, G12D); test: KRAS G12D TR-FRET Assay
Sequence (P01116 1-188 isoform P01116-2 G12D): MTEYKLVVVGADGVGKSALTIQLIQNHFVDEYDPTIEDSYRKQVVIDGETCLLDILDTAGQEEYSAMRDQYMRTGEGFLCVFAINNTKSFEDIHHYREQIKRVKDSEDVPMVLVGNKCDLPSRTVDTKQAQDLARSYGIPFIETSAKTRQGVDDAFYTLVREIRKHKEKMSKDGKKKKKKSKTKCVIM
pIC50: −log10 of the molar value.

COMPOUND	pIC50
CCc1c(F)ccc2cc(O)cc(-c3ccc4c(N5C[C@@H]6CC[C@H]5CN6)nc(OC[C@@]56CCCN5C[C@H](F)C6)nc4c3F)c12	8.30
Cc1ccc2cn[nH]c2c1-c1ccc2c(N3C[C@H]4CC[C@@H](C3)N4)nc(OC[C@@]34CCCN3C[C@H](F)C4)nc2c1	6.29
Oc1cc(-c2ccc3c(N4[C@@H]5CNC[C@H]4COC5)nc(OC[C@@]45CCCN4C[C@H](F)C5)nc3c2F)c2ccccc2c1	8.15
Oc1cc(-c2ccc3c(N4[C@@H]5CC[C@H]4CNC5)nc(OC[C@@]45CCCN4C[C@H](F)C5)nc3c2F)c2cnccc2c1	6.26
Cn1ncc2cccc(-c3ccc4c(N5C[C@H]6CC[C@@H](C5)N6)nc(OC[C@@]56CCCN5C[C@H](F)C6)nc4c3)c21	6.03
Cc1ccc2cnn(C)c2c1-c1c(Cl)cc2c(N3C[C@H]4CC[C@@H](C3)N4)nc(OC[C@@]34CCCN3C[C@H](F)C4)nc2c1F	8.00
Oc1cc(-c2ccc3c(N4C[C@H]5C[C@@H](C4)N5)nc(OC[C@@]45CCCN4C[C@H](F)C5)nc3c2F)c2ccccc2c1	8.30
CCc1cccc2cccc(-c3c(F)cc4c(N5C[C@H]6CC[C@@H](C5)N6)nc(OC[C@@]56CCCN5C[C@H](F)C6)nc4c3F)c12	8.40
CCc1c(F)ccc2cc(O)cc(-c3ccc4c(N5CC6CCC(C5)N6)nc(OC[C@@]56CCCN5C[C@H](F)C6)nc4c3)c12	8.70
CCc1c(F)ccc2cc(O)cc(-c3c(F)cc4c(N5C6CCC5C(=O)NC6)nc(OC[C@@]56CCCN5C[C@H](F)C6)nc4c3F)c12 (single isomer, unassigned) [Example 176]	7.96
Nc1ccc(C2CC2)c(-c2c(F)cc3c(N4C[C@H]5CC[C@@H](C4)N5)nc(OC[C@@]45CCCN4C[C@H](F)C5)nc3c2F)c1	7.80
CCc1c(F)ccc2cc(O)cc(-c3c(F)cc4c(N5C[C@H]6CC[C@@H](C5)N6)nc(OC[C@@H]5C[C@@H](F)CN5C)nc4c3F)c12	8.40
CCc1c(F)ccc2cc(O)cc(-c3c(F)cc4c(N5CC6CCC(C5)N6)nc(OCC56CCCN5C[C@H](F)C6)nc4c3F)c12 (atropisomer, axis not shown; (M))	9.00
N#Cc1cccc2cc(O)cc(-c3c(F)cc4c(N5C[C@H]6CC[C@@H](C5)N6)nc(OC[C@@]56CCCN5C[C@H](F)C6)nc4c3F)c12	8.70
Fc1cc2c(N3[C@@H]4CC[C@H]3CNC4)nc(OC[C@@]34CCCN3C[C@H](F)C4)nc2c(F)c1-c1cccc2cccc(Cl)c12	7.77
CCc1cccc2cccc(-c3ccc4c(N5C[C@H]6CC[C@@H](C5)N6)nc(OC[C@@]56CCCN5C[C@H](F)C6)nc4c3C)c12	8.10
CCc1c(F)ccc2cc(O)cc(-c3ccc4c(N5C[C@H]6CC[C@@H](C5)N6)cc(OC[C@@]56CCCN5C[C@H](F)C6)nc4c3F)c12	7.74
CCc1cccc2cccc(-c3ccc4c(N5C[C@H]6CC[C@@H](C5)N6)nc(OC[C@@]56CCCN5C[C@H](F)C6)nc4c3F)c12	8.40
Oc1cc(-c2ccc3c(N4C[C@@H]5CC[C@H]4CN5)nc(OC[C@@]45CCCN4C[C@H](F)C5)nc3c2)c2c(F)c(F)ccc2c1	8.52
CN1C[C@H](F)C[C@H]1COc1nc(N2[C@@H]3CC[C@H]2CNC3)c2cc(F)c(-c3cc(O)cc4ccccc34)c(O)c2n1	5.97
CCc1c(F)ccc2cc(O)cc(-c3c(F)cc4c(N5[C@@H]6CNC[C@H]5COC6)nc(OC[C@@]56CCCN5C[C@H](F)C6)nc4c3F)c12	8.40
CCC(O)(CC)COc1nc(N2C[C@H]3CC[C@@H](C2)N3)c2cc(F)c(-c3cc(O)cc4ccc(F)c(F)c34)c(F)c2n1	7.47
Cc1c(Cl)cc2[nH]ncc2c1-c1c(Cl)cc2c(N3C[C@H]4CC[C@@H](C3)N4)nc(OC[C@@]34CCCN3C[C@H](F)C4)nc2c1F	7.82
CCc1c(F)ccc2cc(O)cc(-c3c(F)cc4c(N5C[C@H]6CC[C@@H](C5)N6)nc(/C=C/C(C)(C)O)nc4c3F)c12	8.22
